system: Plasmodium berghei; assay: microbe, parasite or virus in culture; type: functional, organism-based
pIC50: −log10 of the molar value.
Tick 1 if pIC50 is 6 or greater. Tick 0 if pIC50 is less than 6.

{"columns": ["Chem Smiles", "Target Or System", "Group"],
 "data": [
  ["CN(C)c1ccc(C(=O)N(Cc2ccc(C(=O)NO)cc2)C(C)(C)C(=O)NCc2ccccc2)cc1", "Plasmodium berghei", 0],
  ["O=C(CN(Cc1ccc(C(=O)NO)cc1)C(=O)c1cccc2ccccc12)NCc1ccccc1", "Plasmodium berghei", 1],
  ["CC(C)c1ccc(CC(=O)N(CC(=O)NCc2ccccc2)Cc2ccc(C(=O)NO)cc2)cc1", "Plasmodium berghei", 0],
  ["CC(C)c1ccc(C(=O)N(Cc2ccc(C(=O)NO)cc2)C(C)(C)C(=O)NC2CCCCC2)cc1", "Plasmodium berghei", 0],
  ["Cc1ccccc1C(=O)N(CC(=O)NC12CC3CC(CC(C3)C1)C2)Cc1ccc(C(=O)NO)cc1", "Plasmodium berghei", 1],
  ["Cc1ccc(C(=O)N(CC(=O)NC2CCCCC2)Cc2ccc(C(=O)NO)cc2)c(C)c1", "Plasmodium berghei", 1],
  ["CC(C)c1ccc(CC(=O)N(CC(=O)NC2CCCCC2)Cc2ccc(C(=O)NO)cc2)cc1", "Plasmodium berghei", 0],
  ["Cc1ccc(C(=O)N(CC(=O)NCc2ccccc2)Cc2ccc(C(=O)NO)cc2)c(C)c1", "Plasmodium berghei", 1],
  ["Cc1cc(C)cc(C(=O)N(CC(=O)N(C)C)Cc2ccc(C(=O)NO)cc2)c1", "Plasmodium berghei", 0]
]}

---

experiment: Intrinsic clearance in human liver microsomes measured upto 40 mins by LC-MS/MS analysis; assay type: ADME, Microsome; conditions: read-out: CLH
Measure Name: log10 microsomal CLint (log10 of the value in µL/min/mg)

{"columns": ["Molecule", "Measure Name", "Assay Result"],
 "data": [
  ["CNC(=O)CN(Cc1ccc(C(=O)NO)cc1)C(=O)c1ccc(C(C)C)cc1", "log10 microsomal CLint", 0.70],
  ["Cc1ccc(C(=O)N(CC(=O)NC2CCCCC2)Cc2ccc(C(=O)NO)cc2)c(C)c1", "log10 microsomal CLint", 2.14],
  ["CC(C)c1ccc(C(=O)N(Cc2ccc(C(=O)NO)cc2)C(C)(C)C(=O)NC2CCCCC2)cc1", "log10 microsomal CLint", 2.16],
  ["O=C(CN(Cc1ccc(C(=O)NO)cc1)C(=O)c1cccc2ccccc12)NCc1ccccc1", "log10 microsomal CLint", 1.61],
  ["Cn1c(=O)c2c(ncn2C)n(C)c1=O [CAFFEINE]", "log10 microsomal CLint", 0.30],
  ["Cc1ccc(C(=O)N(CC(=O)NCc2ccccc2)Cc2ccc(C(=O)NO)cc2)c(C)c1", "log10 microsomal CLint", 1.93],
  ["O=C(O)Cc1ccccc1Nc1c(Cl)cccc1Cl [DICLOFENAC]", "log10 microsomal CLint", 2.39],
  ["CC(C)c1ccc(NC(=O)CN(Cc2ccc(C(=O)NO)cc2)C(=O)Cc2ccccc2)cc1", "log10 microsomal CLint", 1.86]
]}

---

assay: Half life in human liver microsomes measured upto 40 mins by LC-MS/MS analysis; type: ADME, Microsome
Measure Name: log10 of half-life (log10 of the value in min)

{"columns": ["Compound", "Assay Result"],
 "data": [
  ["CC(C)c1ccc(NC(=O)CN(Cc2ccc(C(=O)NO)cc2)C(=O)Cc2ccccc2)cc1", 1.37],
  ["Cc1ccc(C(=O)N(CC(=O)NCc2ccccc2)Cc2ccc(C(=O)NO)cc2)c(C)c1", 1.29],
  ["O=C(CN(Cc1ccc(C(=O)NO)cc1)C(=O)c1cccc2ccccc12)NCc1ccccc1", 1.62],
  ["CNC(=O)CN(Cc1ccc(C(=O)NO)cc1)C(=O)c1ccc(C(C)C)cc1", 2.54],
  ["O=C(O)Cc1ccccc1Nc1c(Cl)cccc1Cl [DICLOFENAC]", 0.83],
  ["Cn1c(=O)c2c(ncn2C)n(C)c1=O [CAFFEINE]", 3.01],
  ["CC(C)c1ccc(C(=O)N(Cc2ccc(C(=O)NO)cc2)C(C)(C)C(=O)NC2CCCCC2)cc1", 1.07],
  ["Cc1ccc(C(=O)N(CC(=O)NC2CCCCC2)Cc2ccc(C(=O)NO)cc2)c(C)c1", 1.09]
]}
